The reported numbers originate from paper PMC8879095.

Experiment: Antibiotic concentrations in porcine oral fluid after intramuscular application (UHPLC-MS/MS)
Format: in vivo
Conditions: male, (Landrace × Yorkshire) × Duroc crossbred (DanBred sows), pig, intramuscular; oral fluid, pigs, i.m., time 24 d, posttreatment; read-out: Avarage Concentrations in oral fluid
measurement-type: concentration at 24 d (ng/mL)

Solved entries:
• C=C[C@]1(C)C[C@@H](OC(=O)CSCCN(CC)CC)[C@]2(C)[C@H](C)CC[C@]3(CCC(=O)[C@H]32)[C@@H](C)[C@@H]1O = 310
• CC[C@H]1OC(=O)C[C@@H](O)[C@H](C)[C@@H](O[C@@H]2O[C@H](C)[C@@H](O[C@H]3C[C@@](C)(O)[C@@H](O)[C@H](C)O3)[C@H](N(C)C)[C@H]2O)[C@@H](CC=O)C[C@@H](C)C(=O)/C=C/C(C)=C/[C@@H]1CO[C@@H]1O[C@H](C)[C@@H](O)[C@@H](OC)[C@H]1OC = 6.6

[I] COc1cc(Cc2cnc(N)nc2N)cc(OC)c1OC
[II] COc1ncnc(NS(=O)(=O)c2ccc(N)cc2)c1OC
[III] CCC[C@@H]1C[C@@H](C(=O)N[C@@H]([C@H]2O[C@H](SC)[C@H](O)[C@@H](O)[C@H]2O)[C@@H](C)O)N(C)C1
q: Order the items by recorded concentration at 24 d; the first position goes to the largest value. Provide the ranking by listing each label in its place in the requested order.
a: III, II, I
(III: 326 ng/mL, II: 37 ng/mL, I: 19.4 ng/mL)
